# Lookup of reported soluble fraction (log2) keyed by entry
- Assay Details: soluble fraction after stress (log2 fold change); higher = more stays soluble; pooled small domains, quantitative proteomics;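 note: 20 min heating vs room temperature control held 20 min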
- Test Settings: stress: 75 degC
Give your answer as a number; write no unit.

Answered examples (2):
| Chain | Recorded Value |
| --- | --- |
| HMKNTLDAYIRYLSNFLSRNNYPEAEDLSFINARADQAYEVFLEARRGGVDVSTAEELAMIALMQGY | -2.34 |
| HMPPNVLSEREQEVLQLAADGMSNKEMGSELYIAPTTVRDHMQSIMRKLQVNSRTAAAVAGLKLGLLD | -0.452 |

Note down soluble fraction (log2) recorded for HMRYVVQVATFSSKNNAIRAADDLAGFVVVSNGYYRVRTGPYADRGEANAALAKARKAGYTDAFVDTS
-2.19

Quote soluble fraction (log2) reported for HMQARLPFSFAKRHGVILLAATGEGQSDVIYKSGFDIGALAEVRRFVAGEIALKEVDGPSFDRQLTLTYQN please.
-2

----------
- Assay Details: soluble fraction after stress (log2 fold change); higher = more stays soluble; pooled small domains, quantitative proteomics
- Test Settings: stress: 75 degC
Quick reference for soluble fraction (log2) among some sequences
Write no unit; give the number alone.

The following sequences have reported results that may help.
| Chain | soluble fraction (log2) |
| --- | --- |
| HMNSNSLSFSKFMQEVEAGRVIEVQIKGNDIQGELSDGSKFKTYSPNYPNLVDKLSENKVSIVATPL | -0.0878 |
| HMEKKSKLVLAVLQGSDSDNTIRNLNERGFMVTVLSSTGGFLKKKSTTVMIGVEEDRLEEALDVLQKYAG | -0.549 |

Return reported soluble fraction (log2). Input sequence: HMQNYLEVLRLHELGMGQRKIAQQVHTSRDTIRKIIAIAENQGLNYSNLIGKTDNELSKVFG
-0.622

----------
- Assay Details: soluble fraction after stress (log2 fold change); higher = more stays soluble; pooled small domains, quantitative proteomics
- Test Settings: stress: 75 degC
Readout Name: soluble fraction (log2)
// no unit string in output, number only

Fill in soluble fraction (log2) for record HMAHESYVKEQLLLSLTNHEDPIMQISLIEQLTKMHERNIIHELEKLTVDVQTNEEVKVQAYASLLILS
-0.869

Specify measured soluble fraction (log2) for HMSLSDDIAQTLRQLGFDRDVSETLANDVLPAMPTRQDVIDLLGTLGIEKHVAADFANFVVLN .
-0.964

----------
- Assay Details: soluble fraction after stress (log2 fold change); higher = more stays soluble; pooled small domains, quantitative proteomics
- Test Settings: stress: 75 degC
Binning rule for recorded soluble fraction (log2): low (below -0.4), middle (-0.4 to below -0.06), high (-0.06 or more)

Observe how each entry below is paired with its result.
| Chain | Class |
| --- | --- |
| HMAITVPEGATLSDAAVLLKQAGAVRSADAFLTRAKVFGGSTPIKAGEFVIPVQASNKDILAILQGGK | high |
| HMQEDQKTSIFDIEGVEKGVASVLSSIKVEIVSDLLEADMDDILKSGKISEDDLDGVYEAVQNFVER | high |
| HMAGTRRFELVEGSSSKFWEVTVADGSYTVTYGRIGTAGGSKTTESATAEADAEKLVREKLKKGYQEAGAA | high |
| HMKYTVKSPLPGVIMSVLVKVGDTVKASDTVISLEAMKMENAIHAGRDGKVTSIDVNVGDSVLEGHTLVTI | low |
| HMIPTTELAERLGTTKVANMIMLGALIKASGIISFDDMIKNLGELLGEGKAKLIKLNKEALEVGFN | high |

Each sequence maps to one class by soluble fraction (log2). Which class for HMKKTVTDSVELLTFLKDIFTNTSTNKLRKMLTTGRVTVNNIVIHKAKHILVQNDVVEIGDK ?
low

Which category fits this record: HMAGGNHPTRLELLDSAAHIAERDGTSALTVDAITKSAGHAKGTFYIHFDDRADLLVEMHRR
middle

Entry HMQVLSESDVEDIKAISGGDKAYDNLMEWAGSKLSKQDAKDYDDVLATGNKTAITFAVKALMAQYENAN belongs to which category?
middle

Determine which band this sequence sits in: HMQDPRITRTRGLILQAFDALLVEKGFHALSVQAIAGRAGINRATFYAHFADKYALLDTSIQE
high

Which soluble fraction (log2) category applies to HMKYSNDEVERDLYVRGVIYQIGDLVENKLDGTSGEVVRRGPNYVQYTDGENFYKAFLSALQEQK here?
middle

Into which category would you place HMTDNSTTTIRNLKIEWLLEEIRNAVRTGVSVDAAVERISNNPFVKPPEDLLNEARIIFLQNAGQI ?
low

----------
- Assay Details: soluble fraction after stress (log2 fold change); higher = more stays soluble; pooled small domains, quantitative proteomics
- Test Settings: stress: 75 degC
Recorded measurements of soluble fraction (log2), one per entry

Consider the worked cases shown below.
| Chain | soluble fraction (log2) |
| --- | --- |
| HMGTGIKQVNVVSVIGQDEETAKTTLTNLGLKVNVTYATSTSDNGKVTKQSIDAGKTVDEGTSVTITVNKV | ≥ 1.04 |
| HMHANSDVEQLMQMGIQRLNFQRYSDALLIFNQIIENFPDYAEAWNKRATLHYLLGNLDKSIADIEQTLE | -2.45 |
| HMTPFVINVDRHGAVIINEKTVDIDEAVVLARQERSQGKSILLAGDKKAPYEAIIRVLDALKQAG | -0.758 |
| HMIGVNMEKSTVEKFANELNLPIDLLLKQLESAGIKKTSGAEELLEADKSALLNYLQIEHGA | 0.725 |
| HMDFTPDQIARLDDIISRYKDKPGGLIPVLEEAQVALEYLPIGVQKRIAKGLNLPLSRVYGVVTFYSFFTM | -0.0122 |

Please list soluble fraction (log2) recorded for the sequence HMFLPGETFDVKIVKIGEGENQGVGYLDDGTMIVIENGRDHLNELARVIVTRVLQNSAGQMIFSDYEE
-2.21

Name the recorded soluble fraction (log2) of the item HMDQTKYDAIITEAKKLTAEGQYKESEEKLATIPVSDLGKPHYSIVKETVEKLNNQNNEGLKRQEEVAVE in your answer.
-0.0329

Tell me its soluble fraction (log2) given HMGNIYKALLGKLEKQLGFLPEGTKLPPEQELAEKFGVSKPTLRRALAELAVRGIIVKQNGIGSVVAGS as the entry.
-0.55

----------
- Assay Details: soluble fraction after stress (log2 fold change); higher = more stays soluble; pooled small domains, quantitative proteomics
- Test Settings: stress: 75 degC
Recorded soluble fraction (log2) split into classes lower (below -0.8), middle (-0.8 to below 0.005), upper (0.005 or more)

Solved cases below.
| Chain | Class |
| --- | --- |
| HMLISDENMLRDLVQAVLDENPKSVSDYKSGKTKAFGFLVGQTMKAVKGQADPMLVNKILTELLN | upper |
| HMTNIDIEKSIKNTITANYDDVLNYHNEDDNKTFASGDSRYSFDYDEKTKTLIVFTNSKVDAVFVDGIKKK | upper |
| HMQGIPVTVTAERANLRSGPGTSFDKLGQVVQGDVLTLLEVQNDWYKVKTAEGKTAFVAAYLVNSP | middle |
| HMGNSRNDQDLQTQIIKILAEGPASSRTLIETLTIEDEAALLKTLKRLLMNKKISLTPSNLYKL | lower |
| HMRKYEAVPASVVPAQIQEYVAKSNFPNQYIRKIERNKYTWEIELSNGLEIKFDRQFNVIGFD | lower |

Which of the defined bands does the recorded soluble fraction (log2) of HMGDRRSVFEQSVLDAIKSLVKQGELATTKAISDHIGTNYQGNVSRAITALLADNKIKKLPKEGVLQPYEA sit within?
middle

Where would HMNKVDEEKNAELVSTIQNKFSDVSAATKKKVKAFMAEHDIPNFKNADEIPTANLEAIVAMLNED land among the classes by reported soluble fraction (log2)?
upper

Could you tell me which band HMDFMNSEIKKIVEDLKLTLQSLNYTKNEIKSILPVINKETDNLIKKEKYASFENLLRLAMNHLDNN belongs to?
middle

GET /class?item= HMESNWLTYAKRIQSIADTGMTFAVDDFDKERYQELADISSKMLADLSNIPIGRIENLLGPLGQ
lower

Category lookup for the sequence HMKKYEIIFNDLKQSIVNGKYSNEERLPPEETLAKKYQTSRVPVQQALNALVGIGMVKRIAGSGTYVTY
middle

----------
- Assay Details: soluble fraction after stress (log2 fold change); higher = more stays soluble; pooled small domains, quantitative proteomics
- Test Settings: stress: 75 degC
Attribute: soluble fraction (log2)
# respond with the number and nothing more

| Chain | soluble fraction (log2) |
| --- | --- |
| HMKKYFPPKSRFNPNKYLLKDWMALGLSEKQSQSILNFIQRGIYSNSALEKIYVMPEEVFTLIKDSTYYEE | -1.38 |
| HMTNISDYILEEYYKNVYPNDLNTKRIVIPNKYEEYAGKYTYITIARMVTYEHDAKKALKVLHQQAT | -0.307 |
| HMAEPTLNERLREALSDPAKLKIAKAIKAKYPIITARDIDTFLNMHEKDIENGADPMDEFEEFFHANY | 0.201 |
| HMDEMEFQKYVDQNLKQKGISLTAEAKAELLLRLGGDTMLLHSAIEKLDLYGEKNLNLNDIKHLVSLNSDV | 0.254 |

Assign soluble fraction (log2) to the following record: HMSGSFDVTLDYLNSLRNLYPAIDVEQEFRKMYAWLDSNPKNRKTERGIKRFITGWLGRAQDKAP
-1.31

Answer with reported soluble fraction (log2) of HMPPITIVPNDNGVPIIRSQTPEISTAVNVELKAAGINTHTIDGTSIRVPKAQAQVAQQIVSRVNTRFT
0.151

Give soluble fraction (log2) for the following sequence: HMTYSAWIEKAYSELEKKGITEAELSDALDKRGINLEDLKLMGPDEAVKYQSEVEGVVLELSKSKE
0.154

Return soluble fraction (log2) (reported value) for this sequence: HMDAYLPETVQKLLDVMDFDVPYSAAQLMEKLGLKSRASFRKLYLLPALEKNLIAMGVPDKPTSRNQTYIR
-0.787

Determine from records and report soluble fraction (log2) for HMDAIAYLGSRLKEIRLKSGLSLREIARQLDVSPSFISQIENGKSQPSVATLYAFAKLLNVPVDVLFQPS
-2.59

Note soluble fraction (log2) for the sequence shown: HMNLTSNDAYSRILNAIITSELRPGDTVTEIQLAQKFGFGRTPVREAIMRLENEGFIVSAERKKRVYIL
-2.97

Given HMLELTGEEEFVIRTLTRQGDLHINALVVETDIPINRMISLLFELEMKGVVKALVGGVYHLLG , respond with its soluble fraction (log2).
-2.45

Read the entry HMGLQRLTVSPEDAGVRIDKYLAEQLPDITRSYLQKLLKDGSVQMNGKPVKASTKTAVGAVIALTIPEP and write its reported soluble fraction (log2).
-0.26
